Source of measurements: paper PMC10397247

Biological target: T1, 4H568-bH
T1 chain: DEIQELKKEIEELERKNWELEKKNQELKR
Test: two-hybrid library CCNG1;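 also: natural log of median RNA to DNA barcode read ratio; higher means stronger binding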
Label key: satisfied means interaction score under -0.3; not satisfied means interaction score of -0.3 or more.

I wonder whether DKIQELKKEIEELERKNWELEKEIQELKR [4H2610-bH] has interaction score below -0.3. Can you tell?
not satisfied

I wonder whether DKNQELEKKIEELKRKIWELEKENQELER [4H3427-bH] has interaction score below -0.3. Can you tell?
satisfied

I wonder whether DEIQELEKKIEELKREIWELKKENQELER [4H331-bH] has interaction score below -0.3. Can you tell?
satisfied

I wonder whether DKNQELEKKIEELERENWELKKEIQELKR [4H3354-bH] has interaction score below -0.3. Can you tell?
satisfied

I wonder whether DKNQELKKKIEELEREIWELKKKNQELER [4H3855-bH] has interaction score below -0.3. Can you tell?
satisfied

I wonder whether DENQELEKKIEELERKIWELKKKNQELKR [4H1328-bH] has interaction score below -0.3. Can you tell?
not satisfied

I wonder whether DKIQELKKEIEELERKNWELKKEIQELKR [4H2618-bH] has interaction score below -0.3. Can you tell?
not satisfied
